Collected BAF3-FLT3 (MIN IL3 Alamar Blue pIC50) values appear next to each entry.
target: Ba/F3-Flt3-transfected cells (Homo sapiens, UniProt P36888, cells depend on it, form not given); construct: BAF3-FLT3 (MIN IL3 Alamar Blue pIC50); other: minus IL3; 24 hours, Alamar Blue; assay: Ba/F3-Flt3 (minus IL3 or plus IL3) cellular proliferation assay, Alamar Blue; format: cell-based; conditions: minus IL3, 24 hours
Give your answer as a number; write no unit.

Below are worked cases with known answers.
{"columns": ["smiles representation", "BAF3-FLT3 (MIN IL3 Alamar Blue pIC50)"],
 "data": [
  ["COc1cc(OC)cc(N(CC#Cc2nccn2C)c2ccc3ncc(-c4cnn(C)c4)cc3c2)c1", 5.23],
  ["COc1cc(OC)cc(N(CCCNCC(F)(F)F)c2ccc3ncc(-c4cnn(C)c4)cc3c2)c1", 5.06]
]}

Proceeding to the next compound to report its BAF3-FLT3 (MIN IL3 Alamar Blue pIC50).
In: Answer with the recorded BAF3-FLT3 (MIN IL3 Alamar Blue pIC50) of `C#CCN(c1cc(OC)cc(OC)c1)c1ccc2ncc(-c3cnn(C)c3)cc2c1` only.
Out: 5.2

// provenance: patent US10039759B2
